Data origin, for the record: patent US20260242478A1

STUDY_SYSTEM: T1, PSMA Fab
T1 construct: also called Anti-PSMA Fab; 006 PSMA Fab
PROTOCOL_DETAILS: clonal phage ELISA; biotinylated PSMA Fab on neutravidin plate, blocking buffer alone; anti-M13 HRP detection;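 also: crude clonal phage supernatants added without washing to wells pretreated with blocking buffer with or without PSMA antigen, short incubation, then washed before detecting bound phage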
Where no end group is shown, it is not given here.
Phage binding ELISA signal, Anti-PSMA Fab listing for selected binders.
Kindly provide the number alone.

Examples from the recorded data:
BINDER	DATA_VALUE
SLAQCVPEWMCFGF [Phage-3411]	1.79
SEILCRPAWMCTGF [Phage-3407]	1.79
AQGVCIPQWMCDGF (cysteine pairing not given here; also: fused to pIII of bacteriophage) [Phage-3406]	1.79

Sure, the documented Phage binding ELISA signal, Anti-PSMA Fab for IMPTCVPQWMCNGF [Phage-3418] is 1.78

Sure, the documented Phage binding ELISA signal, Anti-PSMA Fab for ELVRCIPVWMCQGF [Phage-3412] is 1.79

Sure, the documented Phage binding ELISA signal, Anti-PSMA Fab for METWCVPTWMCTGF [Phage-3415] is 1.79

Sure, the documented Phage binding ELISA signal, Anti-PSMA Fab for VEPLCRPMWMCEGI [Phage-3410] is 1.79

Sure, the documented Phage binding ELISA signal, Anti-PSMA Fab for SVKVCKPAWMCAGF (cysteine pairing not given here; also: fused to pIII of bacteriophage) [Phage-3413] is 1.79

Sure, the documented Phage binding ELISA signal, Anti-PSMA Fab for DFVRCVPDWMCQGF [Phage-3414] is 1.79

Sure, the documented Phage binding ELISA signal, Anti-PSMA Fab for GDHYCKPDWMCSGF [Phage-3408] is 1.79

Sure, the documented Phage binding ELISA signal, Anti-PSMA Fab for DTWICKPEWMCMGF [Phage-3416] is 1.78
